- SYSTEM TESTED: human TLR9 (Homo sapiens, UniProt Q9NR96)
- Sequence (Q9NR96 26-1032): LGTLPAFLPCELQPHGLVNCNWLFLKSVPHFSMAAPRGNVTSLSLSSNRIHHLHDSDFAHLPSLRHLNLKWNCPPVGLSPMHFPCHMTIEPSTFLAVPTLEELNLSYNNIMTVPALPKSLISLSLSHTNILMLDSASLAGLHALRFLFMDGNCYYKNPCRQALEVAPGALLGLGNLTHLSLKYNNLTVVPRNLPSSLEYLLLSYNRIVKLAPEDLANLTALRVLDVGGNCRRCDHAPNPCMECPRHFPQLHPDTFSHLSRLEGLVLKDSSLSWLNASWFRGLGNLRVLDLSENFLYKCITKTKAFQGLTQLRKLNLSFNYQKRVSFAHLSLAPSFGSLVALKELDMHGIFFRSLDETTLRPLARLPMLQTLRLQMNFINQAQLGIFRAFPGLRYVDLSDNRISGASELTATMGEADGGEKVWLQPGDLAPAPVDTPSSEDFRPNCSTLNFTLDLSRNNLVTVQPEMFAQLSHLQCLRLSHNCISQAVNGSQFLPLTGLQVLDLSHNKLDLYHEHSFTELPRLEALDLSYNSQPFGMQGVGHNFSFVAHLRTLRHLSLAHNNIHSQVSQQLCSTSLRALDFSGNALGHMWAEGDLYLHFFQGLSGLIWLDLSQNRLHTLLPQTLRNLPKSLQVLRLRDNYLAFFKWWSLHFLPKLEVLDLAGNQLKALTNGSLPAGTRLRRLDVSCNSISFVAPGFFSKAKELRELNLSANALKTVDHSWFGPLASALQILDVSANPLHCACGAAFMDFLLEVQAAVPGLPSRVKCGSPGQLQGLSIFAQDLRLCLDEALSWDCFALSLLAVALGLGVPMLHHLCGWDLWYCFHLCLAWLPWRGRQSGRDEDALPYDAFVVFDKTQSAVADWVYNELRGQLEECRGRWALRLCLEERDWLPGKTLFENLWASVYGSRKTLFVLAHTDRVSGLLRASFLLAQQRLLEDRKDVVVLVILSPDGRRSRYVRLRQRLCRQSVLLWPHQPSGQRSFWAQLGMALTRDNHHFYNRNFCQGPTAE
- RUN DESCRIPTION: TLR9 inhibition reporter assay (HEK-Blue cells, SEAP reporter, ODN2006 stimulation)
- CONDITION SET: HEK-Blue cells overexpressing human TLR9, SEAP reporter, ODN2006 5 nM
- Excerpt: TLR7/8/9 Inhibition Reporter Assays HEK-Blue™-cells (Invivogen) overexpressing human TLR7, TLR8 or TLR9 receptors were used for screening inhibitors of these receptors using an inducible SEAP (secreted embryonic alkaline phosphatase) reporter gene under the control of the IFN-β minimal promoter fused to five NF-κB and AP-1-binding sites. […]
pIC50: −log10 of the molar value.
# binarize pIC50: threshold 5 inclusive, high side true, low side false

Cc1cc(-c2[nH]nc(C(=O)C(=O)NC3CCN(C(C)C)CC3)c2C(C)C)cn2ncnc12 [Example 183]    true
Cc1cc(-c2[nH]nc(-c3cc4n(n3)CCNC4)c2C(C)C)cn2ncnc12 [Example 217]    true
CCN1CCC(c2cnc(-c3n[nH]c(-c4cc(C)c5ncnn5c4)c3C(C)C)nc2)CC1 [Example 369]    false
Cc1cc(-c2[nH]nc(-c3ncc4c(n3)CCNC4)c2C(C)C)cn2ncnc12 [Example 222]    false
Cc1cc(-c2[nH]nc(C(=O)N[C@H]3CC[C@H](NCC4(C)COC4)CC3)c2C(C)C)cn2ncnc12 [Example 149]    false

Problem: Does pIC50 meet or surpass 5 for Cc1cc(-c2[nH]nc(-c3ccc4c(c3)CCN(CC(C)(C)O)C4)c2C(C)C)cn2ncnc12 [Example 264] ?
Result: false

Problem: Does pIC50 meet or surpass 5 for Cc1cc(-c2[nH]nc(C(=O)NC3CCN(CCC(C)(C)C)CC3)c2C(C)C)cn2ncnc12 [Example 75] ?
Result: true
